Listed below: IC50 values for each entry.
SYSTEM_TESTED: Porcine pancreatic α-amylase (Sus scrofa)
Construct: purchased Sigma-Aldrich Chemical Co. (St. Louis, MO, USA) A3176
Sequence (P00690 16-511): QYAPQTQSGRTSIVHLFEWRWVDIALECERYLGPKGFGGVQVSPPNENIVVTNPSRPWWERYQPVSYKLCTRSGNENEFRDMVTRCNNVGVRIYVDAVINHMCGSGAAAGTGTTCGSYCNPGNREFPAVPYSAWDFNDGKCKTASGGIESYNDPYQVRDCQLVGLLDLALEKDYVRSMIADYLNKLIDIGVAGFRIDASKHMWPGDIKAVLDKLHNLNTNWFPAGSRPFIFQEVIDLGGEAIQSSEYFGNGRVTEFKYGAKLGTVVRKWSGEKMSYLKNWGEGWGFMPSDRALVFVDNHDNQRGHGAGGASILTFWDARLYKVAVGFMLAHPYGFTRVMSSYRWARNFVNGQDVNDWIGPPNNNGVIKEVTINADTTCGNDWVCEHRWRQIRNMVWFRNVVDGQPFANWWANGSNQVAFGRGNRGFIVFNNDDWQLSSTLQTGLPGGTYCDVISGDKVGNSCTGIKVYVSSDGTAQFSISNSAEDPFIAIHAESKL
RUN_DESCRIPTION: In vitro α-amylase inhibition assay (starch/DNS, absorbance at 540 nm)
Type: biochemical
CONDITION_PARAMETERS: 0.2 M potassium phosphate buffer pH 6.8, 37 °C, mean ± SD, triplicate; read-out: IC50 Values against α-Amylase (converted)
A number alone suffices; assume mM.

Reference set, count: 2
COc1cc(C(=O)O)ccc1O [Compound 15, 4-Hydroxy-3-methoxybenzoic acid]    24.4
COc1cc(C(=O)O)cc(OC)c1O [Compound 17, 4-Hydroxy-3,5-dimethoxybenzoic acid]    32.2

--- query ---
State the measured IC50 (Porcine pancreatic α-amylase (Sus scrofa)) of O=C(O)c1ccc(O)c(O)c1O [Compound 5, 2,3,4-Trihydroxybenzoic acid]
17.3

Hello, the source for this data is paper PMC9102017, in case you need it.
